Cited source: paper PMC4652773

ASSAYED SYSTEM: T1, BsaWI R130A&R259A (UniProt Q6UQ65 1-272, R130A;R259A)
T1 sequence: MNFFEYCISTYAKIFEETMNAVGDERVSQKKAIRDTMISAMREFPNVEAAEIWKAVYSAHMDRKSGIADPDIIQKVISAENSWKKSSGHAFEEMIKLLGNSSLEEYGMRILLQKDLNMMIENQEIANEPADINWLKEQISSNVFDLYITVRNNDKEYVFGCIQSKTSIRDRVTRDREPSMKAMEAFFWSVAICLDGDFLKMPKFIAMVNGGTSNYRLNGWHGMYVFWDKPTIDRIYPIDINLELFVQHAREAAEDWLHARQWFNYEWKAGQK
MEASUREMENT NOTES: EMSA; 5 mM Ca2+; EMSA: 40 mM Tris-acetate pH 8.3, 0.1 mg/ml BSA, 10% glycerol, 5 mM CaCl2 or 0.1 mM EDTA, 1 nM DNA, room temperature, 15 min
CONDITIONS USED: protein: recombinant; chain copies: 2; label: 33P; blunt
READOUT TYPE: Kd (nM)
One number for each entry, in nM.

Looking for the measured Kd of SP (dsDNA) DNA 1: GCCTTTCGGTTTACCGGTGTCATTCCGCTG DNA 2: CAGCGGAATGACACCGGTAAACCGAAAGGC , can you help? 2.7
